System: "in vitro" rumen fluid culture
Test: Biogas production in "in vitro" rumen fluid culture (pressure meter)
Type: cell-based, calves
Design: unit not given here
Conditions: Exp 1; 48 h incubation
Quick reference for Cumulative biogas production among some compounds
Give the figure only, with no unit attached.

Use these answered entries as a reference point.
compound | Cumulative biogas production
C[C@@H]1O[C@@H](O[C@H]2[C@H](Oc3cc(O)c4c(c3)O[C@H](c3ccc(O)cc3)CC4=O)O[C@H](CO)[C@@H](O)[C@@H]2O)[C@H](O)[C@H](O)[C@H]1O [Naringin, naringin] | 270.98
COc1ccc([C@@H]2CC(=O)c3c(O)cc(O[C@@H]4O[C@H](CO[C@@H]5O[C@@H](C)[C@H](O)[C@@H](O)[C@H]5O)[C@@H](O)[C@H](O)[C@H]4O)cc3O2)cc1O [Hesperidin, hesperidin] | 261.28

Moving on to the next compound.
Exercise: I am curious: what Cumulative biogas production value has been reported for C[C@@H]1O[C@@H](O[C@H]2[C@H](Oc3cc(O)c4c(c3)O[C@H](c3ccc(O)c(O)c3)CC4=O)O[C@H](CO)[C@@H](O)[C@@H]2O)[C@H](O)[C@H](O)[C@H]1O [Neoeriocitrin] ?
Solution: 288.43

* * *

System: "in vitro" ruminal fluid cultures
Test: Ammonia (N-NH3) concentration in "in vitro" ruminal fluid cultures
Format: cell-based, calves
Conditions: 72 h
Quick reference for N-NH3 concentration among some molecules

Use these answered entries as a reference point.
compound structure | N-NH3 concentration
C[C@@H]1O[C@@H](O[C@H]2[C@H](Oc3cc(O)c4c(c3)O[C@H](c3ccc(O)cc3)CC4=O)O[C@H](CO)[C@@H](O)[C@@H]2O)[C@H](O)[C@H](O)[C@H]1O | 336.25 mg/L
C[C@@H]1O[C@@H](O[C@H]2[C@H](Oc3cc(O)c4c(c3)O[C@H](c3ccc(O)c(O)c3)CC4=O)O[C@H](CO)[C@@H](O)[C@@H]2O)[C@H](O)[C@H](O)[C@H]1O | 347.34 mg/L

Moving on to the next molecule.
Exercise: I am curious: what N-NH3 concentration value has been reported for C[C@@H]1O[C@@H](OC[C@H]2O[C@@H](Oc3cc(O)c4c(c3)O[C@H](c3ccc(O)cc3)CC4=O)[C@H](O)[C@@H](O)[C@@H]2O)[C@H](O)[C@H](O)[C@H]1O ?
Solution: 322.53 mg/L

* * *

System: "in vitro" ruminal fluid cultures
Test: Volatile fatty acid concentration and molar proportions in "in vitro" ruminal fluid cultures
Assay type: cell-based, calves
Conditions: 72 h
Quick reference for % Butyrate, molar ratio among some compounds
The reply should consist of the numeric value with the unit placed after it.

Use these answered entries as a reference point.
compound structure | % Butyrate, molar ratio
C[C@@H]1O[C@@H](O[C@H]2[C@H](Oc3cc(O)c4c(c3)O[C@H](c3ccc(O)cc3)CC4=O)O[C@H](CO)[C@@H](O)[C@@H]2O)[C@H](O)[C@H](O)[C@H]1O | 10.33 mol/100 mol
C[C@@H]1O[C@@H](OC[C@H]2O[C@@H](Oc3cc(O)c4c(c3)O[C@H](c3ccc(O)cc3)CC4=O)[C@H](O)[C@@H](O)[C@@H]2O)[C@H](O)[C@H](O)[C@H]1O | 10.24 mol/100 mol
C[C@@H]1O[C@@H](O[C@H]2[C@H](Oc3cc(O)c4c(c3)O[C@H](c3ccc(O)c(O)c3)CC4=O)O[C@H](CO)[C@@H](O)[C@@H]2O)[C@H](O)[C@H](O)[C@H]1O | 11.79 mol/100 mol

Exercise: I am curious: what % Butyrate, molar ratio value has been reported for COc1ccc([C@@H]2CC(=O)c3c(O)cc(O[C@@H]4O[C@H](CO)[C@@H](O)[C@H](O)[C@H]4O[C@@H]4O[C@@H](C)[C@H](O)[C@@H](O)[C@H]4O)cc3O2)cc1O ?
Solution: 9.96 mol/100 mol

Exercise: I am curious: what % Butyrate, molar ratio value has been reported for COc1ccc([C@@H]2CC(=O)c3c(O)cc(O[C@@H]4O[C@H](CO)[C@@H](O)[C@H](O)[C@H]4O[C@@H]4O[C@@H](C)[C@H](O)[C@@H](O)[C@H]4O)cc3O2)cc1 ?
Solution: 10.20 mol/100 mol

Exercise: I am curious: what % Butyrate, molar ratio value has been reported for COc1ccc([C@@H]2CC(=O)c3c(O)cc(O[C@@H]4O[C@H](CO[C@@H]5O[C@@H](C)[C@H](O)[C@@H](O)[C@H]5O)[C@@H](O)[C@H](O)[C@H]4O)cc3O2)cc1O ?
Solution: 10.78 mol/100 mol

* * *

Test system: "in vitro" rumen fluid culture
Test: Biogas production in "in vitro" rumen fluid culture (pressure meter)
Format: cell-based, calves
Design: unit not given here
Conditions: Exp 1; dose 1, 0.2 g/kg DM
Quick reference for Biogas production among some compounds
Give the figure only, with no unit attached.

Use these answered entries as a reference point.
compound structure | result value
C[C@@H]1O[C@@H](OC[C@H]2O[C@@H](Oc3cc(O)c4c(c3)O[C@H](c3ccc(O)cc3)CC4=O)[C@H](O)[C@@H](O)[C@@H]2O)[C@H](O)[C@H](O)[C@H]1O | 235.13
C[C@@H]1O[C@@H](O[C@H]2[C@H](Oc3cc(O)c4c(c3)O[C@H](c3ccc(O)c(O)c3)CC4=O)O[C@H](CO)[C@@H](O)[C@@H]2O)[C@H](O)[C@H](O)[C@H]1O | 277.08

Exercise: I am curious: what Biogas production value has been reported for COc1ccc([C@@H]2CC(=O)c3c(O)cc(O[C@@H]4O[C@H](CO)[C@@H](O)[C@H](O)[C@H]4O[C@@H]4O[C@@H](C)[C@H](O)[C@@H](O)[C@H]4O)cc3O2)cc1 ?
Solution: 234.43

Exercise: I am curious: what Biogas production value has been reported for COc1ccc([C@@H]2CC(=O)c3c(O)cc(O[C@@H]4O[C@H](CO[C@@H]5O[C@@H](C)[C@H](O)[C@@H](O)[C@H]5O)[C@@H](O)[C@H](O)[C@H]4O)cc3O2)cc1O ?
Solution: 239.91

Exercise: I am curious: what Biogas production value has been reported for COc1ccc([C@@H]2CC(=O)c3c(O)cc(O[C@@H]4O[C@H](CO)[C@@H](O)[C@H](O)[C@H]4O[C@@H]4O[C@@H](C)[C@H](O)[C@@H](O)[C@H]4O)cc3O2)cc1O ?
Solution: 238.13

Exercise: I am curious: what Biogas production value has been reported for C[C@@H]1O[C@@H](O[C@H]2[C@H](Oc3cc(O)c4c(c3)O[C@H](c3ccc(O)cc3)CC4=O)O[C@H](CO)[C@@H](O)[C@@H]2O)[C@H](O)[C@H](O)[C@H]1O ?
Solution: 251.15

* * *

Tested on: "in vitro" ruminal fluid cultures
Assay: Volatile fatty acid concentration and molar proportions in "in vitro" ruminal fluid cultures
Type: cell-based, calves
Conditions: 72 h
test readout: VFA concentration (mmol/L)
Numeric answer only, unit mmol/L assumed.

Use these answered entries as a reference point.
compound structure | test readout | result value
C[C@@H]1O[C@@H](OC[C@H]2O[C@@H](Oc3cc(O)c4c(c3)O[C@H](c3ccc(O)cc3)CC4=O)[C@H](O)[C@@H](O)[C@@H]2O)[C@H](O)[C@H](O)[C@H]1O | VFA concentration | 52.26
COc1ccc([C@@H]2CC(=O)c3c(O)cc(O[C@@H]4O[C@H](CO[C@@H]5O[C@@H](C)[C@H](O)[C@@H](O)[C@H]5O)[C@@H](O)[C@H](O)[C@H]4O)cc3O2)cc1O | VFA concentration | 53.70
C[C@@H]1O[C@@H](O[C@H]2[C@H](Oc3cc(O)c4c(c3)O[C@H](c3ccc(O)cc3)CC4=O)O[C@H](CO)[C@@H](O)[C@@H]2O)[C@H](O)[C@H](O)[C@H]1O | VFA concentration | 51.03
COc1ccc([C@@H]2CC(=O)c3c(O)cc(O[C@@H]4O[C@H](CO)[C@@H](O)[C@H](O)[C@H]4O[C@@H]4O[C@@H](C)[C@H](O)[C@@H](O)[C@H]4O)cc3O2)cc1 | VFA concentration | 51.87

Exercise: I am curious: what VFA concentration value has been reported for COc1ccc([C@@H]2CC(=O)c3c(O)cc(O[C@@H]4O[C@H](CO)[C@@H](O)[C@H](O)[C@H]4O[C@@H]4O[C@@H](C)[C@H](O)[C@@H](O)[C@H]4O)cc3O2)cc1O ?
Solution: 53.04

Exercise: I am curious: what VFA concentration value has been reported for C[C@@H]1O[C@@H](O[C@H]2[C@H](Oc3cc(O)c4c(c3)O[C@H](c3ccc(O)c(O)c3)CC4=O)O[C@H](CO)[C@@H](O)[C@@H]2O)[C@H](O)[C@H](O)[C@H]1O ?
Solution: 53.75
